Below, each entry is listed with its recorded Epimerization %.
Test: Stability testing: epimerization of cyclosporin derivatives in methanol, monitored by HPLC
Type: physicochemical
Details: Table 10, MeOH at 50° C., 29 hours
*1 amine or outer side, *2 acyl side, *3 side chain or, on linkers, in order; H or OH if unused. Where a SMILES comes first, the peptide text is derived from it. [ ]: non-standard residue; d: D form. ξ: configuration not given here. MeBmt = C/C=C/C[C@@H](C)[C@@H](O)[C@H](NC)C(=O)O; X1 = CN([C@H](SCCCN1CCOCC1)C(=O)[*:2])[*:1]; X2 = CCN(CC)CCCS[C@H](C(=O)[*:2])N(C)[*:1]; NMeIle(3ξ) = CCC(C)[C@H](NC)C(=O)O; NMeL = CN[C@@H](CC(C)C)C(=O)O; NMeV = CN[C@H](C(=O)O)C(C)C; Abu = CC[C@H](N)C(=O)O
Number only, in %; omit the unit.

1. C/C=C/C[C@@H](C)[C@@H](O)[C@H]1C(=O)N[C@@H](CC)C(=O)N(C)[C@H](SCCCN(CC)CC)C(=O)N(C)[C@@H](CC(C)(C)O)C(=O)N[C@@H](C(C)C)C(=O)N(C)[C@@H](CC(C)C)C(=O)N[C@@H](C)C(=O)N[C@H](C)C(=O)N(C)[C@@H](CC(C)C)C(=O)N(C)[C@@H](CC(C)C)C(=O)N(C)[C@@H](C(C)C)C(=O)N1C = 0
2. C/C=C/C[C@@H](C)[C@@H](O)[C@H]1C(=O)N[C@@H](CC)C(=O)N(C)[C@H](SCCCN(CC)CC)C(=O)N(C)[C@@H](C(C)CC)C(=O)N[C@@H](C(C)C)C(=O)N(C)[C@@H](CC(C)C)C(=O)N[C@@H](C)C(=O)N[C@H](C)C(=O)N(C)[C@@H](CC(C)C)C(=O)N(C)[C@@H](CC(C)C)C(=O)N(C)[C@@H](C(C)C)C(=O)N1C (stereo partly shown) (cyclo(A[dA][NMeL][NMeL][NMeV][MeBmt][Abu][X2][NMeIle(3ξ)]V[NMeL])) = 0
3. C/C=C/C[C@@H](C)[C@@H](O)[C@H]1C(=O)N[C@@H](CC)C(=O)N(C)[C@H](SCCCN(CC)CC)C(=O)N(C)[C@@H](CC(C)(C)OC)C(=O)N[C@@H](C(C)C)C(=O)N(C)[C@@H](CC(C)C)C(=O)N[C@@H](C)C(=O)N[C@H](C)C(=O)N(C)[C@@H](CC(C)C)C(=O)N(C)[C@@H](CC(C)C)C(=O)N(C)[C@@H](C(C)C)C(=O)N1C = 0
4. C/C=C/C[C@@H](C)[C@@H](O)[C@H]1C(=O)N[C@@H](CC)C(=O)N(C)[C@H](SCCCN2CCOCC2)C(=O)N(C)[C@@H](C(C)C)C(=O)N[C@@H](C(C)C)C(=O)N(C)[C@@H](CC(C)C)C(=O)N[C@@H](C)C(=O)N[C@H](C)C(=O)N(C)[C@@H](CC(C)C)C(=O)N(C)[C@@H](CC(C)C)C(=O)N(C)[C@@H](C(C)C)C(=O)N1C (cyclo(A[dA][NMeL][NMeL][NMeV][MeBmt][Abu][X1][NMeV]V[NMeL])) = 0
5. C/C=C/C[C@@H](C)[C@@H](O)[C@H]1C(=O)N[C@@H](CC)C(=O)N(C)[C@H](SCCCN2CCOCC2)C(=O)N(C)[C@@H](C(C)CC)C(=O)N[C@@H](C(C)C)C(=O)N(C)[C@@H](CC(C)C)C(=O)N[C@@H](C)C(=O)N[C@H](C)C(=O)N(C)[C@@H](CC(C)C)C(=O)N(C)[C@@H](CC(C)C)C(=O)N(C)[C@@H](C(C)C)C(=O)N1C (stereo partly shown) (cyclo(A[dA][NMeL][NMeL][NMeV][MeBmt][Abu][X1][NMeIle(3ξ)]V[NMeL])) = 0

Query: Param item = C/C=C/C[C@@H](C)[C@@H](O)[C@H]1C(=O)N[C@@H](CC)C(=O)N(C)[C@H](SCCCN2CCOCC2)C(=O)N(C)[C@@H](CC(C)(C)OC)C(=O)N[C@@H](C(C)C)C(=O)N(C)[C@@H](CC(C)C)C(=O)N[C@@H](C)C(=O)N[C@H](C)C(=O)N(C)[C@@H](CC(C)C)C(=O)N(C)[C@@H](CC(C)C)C(=O)N(C)[C@@H](C(C)C)C(=O)N1C [drawing 1937] ; retrieve measured Epimerization %.
Response: 0

Query: Param item = C/C=C/C[C@@H](C)[C@@H](O)[C@H]1C(=O)N[C@@H](CC)C(=O)N(C)[C@H](SCCCN2CCOCC2)C(=O)N(C)[C@@H](CC(C)(C)O)C(=O)N[C@@H](C(C)C)C(=O)N(C)[C@@H](CC(C)C)C(=O)N[C@@H](C)C(=O)N[C@H](C)C(=O)N(C)[C@@H](CC(C)C)C(=O)N(C)[C@@H](CC(C)C)C(=O)N(C)[C@@H](C(C)C)C(=O)N1C [drawing 1936] ; retrieve measured Epimerization %.
Response: 0

Query: Param item = C/C=C/C[C@@H](C)[C@@H](O)[C@H]1C(=O)N[C@@H](CC)C(=O)N(C)[C@H](SCCCN(CC)CC)C(=O)N(C)[C@@H](C(C)C)C(=O)N[C@@H](C(C)C)C(=O)N(C)[C@@H](CC(C)C)C(=O)N[C@@H](C)C(=O)N[C@H](C)C(=O)N(C)[C@@H](CC(C)C)C(=O)N(C)[C@@H](CC(C)C)C(=O)N(C)[C@@H](C(C)C)C(=O)N1C (cyclo(A[dA][NMeL][NMeL][NMeV][MeBmt][Abu][X2][NMeV]V[NMeL])) ; retrieve measured Epimerization %.
Response: 0
